From: the supplement of paper PMC10567573

This listing pairs variants with measured protein stability index.
B1: FBXO34 (parent)
chain: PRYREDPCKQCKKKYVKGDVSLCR

Variants of: B1
Method Description: protein stability index of a GFP-peptide fusion (GPS, HEK-293T) (PSI 1-6); higher = more stable;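 note: lentivirally expressed fusions sorted by FACS into six bins by GFP to DsRed ratio, PSI derived from sequencing read proportions per bin multiplied by bin number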
Details: c terminus: a fixed tail appended
Number only, please.

For orientation, consider the following solved cases.
[
  {
    "Change": "V20S",
    "protein stability index": 3.11
  },
  {
    "Change": "C8P",
    "protein stability index": 3.7
  },
  {
    "Change": "C23S",
    "protein stability index": 2.58
  },
  {
    "Change": "V20T",
    "protein stability index": 2.52
  },
  {
    "Change": "L22T",
    "protein stability index": 2.93
  },
  {
    "Change": "R4Y",
    "protein stability index": 2.66
  }
]

Query :: # return recorded protein stability index for input R24T
Result :: 3.05

Query :: # return recorded protein stability index for input D6V
Result :: 2.58

Query :: # return recorded protein stability index for input C23Y
Result :: 2.11

Query :: # return recorded protein stability index for input L22A
Result :: 3.12

Query :: # return recorded protein stability index for input C11L
Result :: 3.31
